Catalogue of Total Mean Fluorescent Intensity values
Molecular target: T1, human CD20 (human, UniProt P11836 1-297)
T1 construct: On human CD20-transfected MG87 cells, or endogenous on Daudi, RL and Raji cells; also called hCD20
T1 sequence: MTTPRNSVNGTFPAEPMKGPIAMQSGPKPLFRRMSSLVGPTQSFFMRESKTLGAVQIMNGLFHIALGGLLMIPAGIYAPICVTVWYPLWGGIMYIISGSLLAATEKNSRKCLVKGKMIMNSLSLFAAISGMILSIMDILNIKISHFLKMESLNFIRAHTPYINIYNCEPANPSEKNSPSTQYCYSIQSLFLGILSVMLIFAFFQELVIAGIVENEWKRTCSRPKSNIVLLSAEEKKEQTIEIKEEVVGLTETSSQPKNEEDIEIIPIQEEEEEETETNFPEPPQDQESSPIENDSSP
Experiment: flow cytometry, hCD20-transfected MG87 cells

[
  {
    "BINDER": "8G6-5 (antibody, V domains shown, Fully human IgG, constant region not specified; also called 8G6-5N) VH: EVQLAESGGDLVQSGRSLRLSCAASGITFHDYAMHWVRQPPGKGLEWVSGISWNSDYIGYADSVKGRFTISRDNAKKSLYLQMNSLRPDDTALYYCVKDFHYGSGSNYGMDVWGQGTTVTVSP VL: EIVMTQSPATLSMSPGERATLSCRASQSVSRNLAWYQQKVGQAPRLLISGASTRATGIPARFSGSGSGTEFTLTINSLQSEDFAVYYCQQSNDWPLTFGQGTRLEIK",
    "Total Mean Fluorescent Intensity": 3410
  },
  {
    "BINDER": "9C11-14 (antibody, V domains shown, Fully human IgG, constant region not specified; also called 9C11-14N) VH: QVQLVESGGDSVKPGGSLRLSCAASGFTFSDSYMTWIRQAPGKGLEWVSFISSSGSTIYYADSVKGRFTISRDNVKKSLYLQMNRLRAEDTAVYYCAREEPGNYVYYGMDVWGQGTTVTVSS VL: EIVVTQSPATLSLSPGERATLSCRTSQTTTSYLAWYRQKPGQAPRLLIYDASNRAAGIPARFSGSGSGTDFTLTINSLEPEDFAVYYCQLRTNWITFGQGTRLEIK",
    "Total Mean Fluorescent Intensity": 2750
  }
]

Reference source for all entries: patent US20090035322A1
